Where do these numbers come from? They come from paper PMC8003416.

Target: human phenylalanine hydroxylase (hPAH) (Homo sapiens)
Construct: Recombinant full-length wild-type (WT) hPAH was expressed in E. coli Top10 cells in fusion with a hexa-histidyl peptide; made in house; host or cells: E. coli Top10
Sequence (P00439 whole entry, the tested form may be a part): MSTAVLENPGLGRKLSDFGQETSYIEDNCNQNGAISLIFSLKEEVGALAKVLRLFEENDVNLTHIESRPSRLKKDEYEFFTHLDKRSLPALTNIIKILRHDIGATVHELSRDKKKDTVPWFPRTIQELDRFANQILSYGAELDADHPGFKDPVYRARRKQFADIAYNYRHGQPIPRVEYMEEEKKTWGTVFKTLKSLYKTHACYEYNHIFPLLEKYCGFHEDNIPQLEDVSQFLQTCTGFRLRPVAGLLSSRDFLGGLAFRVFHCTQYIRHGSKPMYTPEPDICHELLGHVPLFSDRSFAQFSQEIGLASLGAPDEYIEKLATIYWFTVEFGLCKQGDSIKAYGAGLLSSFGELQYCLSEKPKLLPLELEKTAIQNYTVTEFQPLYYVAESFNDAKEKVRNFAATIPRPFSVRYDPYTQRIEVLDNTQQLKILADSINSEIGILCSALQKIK
Assay: Differential scanning fluorimetry (thermal denaturation)
Format: binding
Settings: 100 μM compound in 1% DMSO; control 53.5 ± 0.4
Output Satisfied for records whose Tm2 (catalytic domain) is lower than 50 °C, Not satisfied for records at or above 50 °C.

Some solved cases for reference:
Molecule: O=C(NCc1ccccc1)c1c(O)c(=O)[nH]c2ccc(OC(F)(F)F)cc12
Label: Not satisfied
//
Molecule: O=C(NCc1ccccc1)c1c(O)c(=O)n(Cc2ccccc2)c2ccccc12
Label: Not satisfied
//
Molecule: O=C(NCCc1ccccc1)c1c(O)c(=O)[nH]c2ccc(OC(F)(F)F)cc12
Label: Not satisfied

Qu. I wonder whether CC(OC(=O)c1c(O)c(=O)[nH]c2ccc(OC(F)(F)F)cc12)c1ccccc1 (centres unmarked) has Tm2 (catalytic domain) below 50 °C. Can you tell?
Ans. Satisfied

Qu. I wonder whether COC(=O)[C@H](CC(C)C)NC(=O)c1c(O)c(=O)[nH]c2ccc(OC(F)(F)F)cc12 has Tm2 (catalytic domain) below 50 °C. Can you tell?
Ans. Not satisfied

Qu. I wonder whether CCOC(=O)[C@H](Cc1ccccc1)NC(=O)c1c(O)c(=O)n(Cc2ccccc2)c2ccc(OC(F)(F)F)cc12 has Tm2 (catalytic domain) below 50 °C. Can you tell?
Ans. Satisfied

Qu. I wonder whether O=C(c1ccccc1)c1c(O)c(=O)[nH]c2ccc(OC(F)(F)F)cc12 has Tm2 (catalytic domain) below 50 °C. Can you tell?
Ans. Not satisfied

Qu. I wonder whether CCOC(=O)[C@H](Cc1ccccc1)NC(=O)c1c(O)c(=O)[nH]c2ccc(Cl)cc12 has Tm2 (catalytic domain) below 50 °C. Can you tell?
Ans. Satisfied
